# experimental-target: Histidine--tRNA ligase (Leishmania infantum) (UniProt A4I591)
# Sequence (A4I591 as listed by the source): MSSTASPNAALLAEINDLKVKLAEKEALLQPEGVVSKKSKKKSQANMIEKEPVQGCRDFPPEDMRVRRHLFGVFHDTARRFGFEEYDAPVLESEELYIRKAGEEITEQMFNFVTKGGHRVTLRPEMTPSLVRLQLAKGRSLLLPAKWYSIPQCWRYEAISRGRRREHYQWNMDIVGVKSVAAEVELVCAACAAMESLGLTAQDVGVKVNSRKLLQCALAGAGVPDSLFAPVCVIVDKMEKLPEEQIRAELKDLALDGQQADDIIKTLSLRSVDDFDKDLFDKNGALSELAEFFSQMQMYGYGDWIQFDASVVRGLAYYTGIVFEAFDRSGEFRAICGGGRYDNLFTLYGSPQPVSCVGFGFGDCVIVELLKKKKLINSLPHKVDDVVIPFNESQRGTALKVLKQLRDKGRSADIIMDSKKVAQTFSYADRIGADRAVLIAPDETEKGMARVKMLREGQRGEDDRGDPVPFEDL
# method-notes: Leishmania infantum Histidine tRNA synthetase (LdHisRS)
# Format: functional
# Parameters: scale not given: in the data most compounds retested in dose-response had high values
# condition-notes: 30 µM
Hit rate of the full screen: of about 69,000 compounds, about 420 (0.61%) showed an effect of 50% or more. Shown is part of a subset that was picked to be rich in strong results.
# Percent Effect listing for each entry below
Give the value, in units of %, as a plain number.

The cases that follow already have their Percent Effect on record.
[[record]]
molecule = "COc1ccc(C2CC(=O)Nc3c2cnn3C)cc1 (stereo not given)"
experimental_target = "Histidine--tRNA ligase (Leishmania infantum) (UniProt A4I591)"
reported_endpoint = "Percent Effect"
result_value = 1.91

[[record]]
molecule = "O=C1CC[C@H](C(=O)Nc2cnn(-c3ccccc3Br)c2)N1"
experimental_target = "Histidine--tRNA ligase (Leishmania infantum) (UniProt A4I591)"
reported_endpoint = "Percent Effect"
result_value = 7.32

[[record]]
molecule = "CN(CCCOc1ccccc1Cl)C(=O)CN1CCCCCC1=O"
experimental_target = "Histidine--tRNA ligase (Leishmania infantum) (UniProt A4I591)"
reported_endpoint = "Percent Effect"
result_value = 21.2

[[record]]
molecule = "COc1ccc(C2CC(=O)Nc3nc(N4CCOCC4)sc32)c(OC)c1 (stereo not given)"
experimental_target = "Histidine--tRNA ligase (Leishmania infantum) (UniProt A4I591)"
reported_endpoint = "Percent Effect"
result_value = 115

[[record]]
molecule = "CS(=O)(=O)CCOCCNc1cncc(Br)c1"
experimental_target = "Histidine--tRNA ligase (Leishmania infantum) (UniProt A4I591)"
reported_endpoint = "Percent Effect"
result_value = 53.2


Observed Percent Effect, Histidine--tRNA ligase (Leishmania infantum) (UniProt A4I591), `COCCCN(C)C(=O)Cn1cccc(OC)c1=O` : 107

Histidine--tRNA ligase (Leishmania infantum) (UniProt A4I591) data for `CC(C)(O)CCc1cccc(C(=O)NCc2cnn3cccnc23)c1` ; its Percent Effect: 2.22

Record `O=c1[nH]nc(CNc2cncc(Br)c2)[nH]1` / Histidine--tRNA ligase (Leishmania infantum) (UniProt A4I591), Percent Effect recorded as 11.1

###

# experimental-target: Histidine--tRNA ligase (Leishmania infantum)
# method-notes: Leishmania infantum Histidine tRNA synthetase (LdHisRS)
# Format: functional
# Set-up: scale not given: in the data most compounds retested in dose-response had high values
# condition-notes: 30 µM
Screen size: about 69,000 compounds; about 420 (0.61%) showed an effect of 50% or more. For the sample, strong results were picked, then their nearest neighbours and some compounds at random.
Okay, here is how we bin by Percent Effect: lower = under 10%, middle = from 10% up to 30%, upper = 30% and over

Illustrative cases are given below, each with its answer.
[[record]]
compound = "Cc1ccc(CN2CC[C@@H]3OCCN(Cc4ccncc4)[C@H]3CC2)s1"
class = "middle"

[[record]]
compound = "COc1ccc(-c2noc(CN3CCc4cncnc4C3)n2)cc1"
class = "upper"

[[record]]
compound = "CCCN1C[C@H]2CC[C@@H]1CN(c1nnc(C(C)C)s1)C2"
class = "lower"

[[record]]
compound = "COCCN1CC[C@H]2CN(Cc3ccc(C)s3)C[C@@H]2C1=O"
class = "lower"

[[record]]
compound = "Cc1nc([C@@H]2C[C@H]3CN(Cc4scnc4C)C[C@H]3O2)no1"
class = "middle"


Quick check: band for `CS(=O)(=O)N1C[C@H]2CCC[C@@]2(COc2ccccn2)C1` middle

Could you place `Cc1ncsc1CN1CC[C@H]2OCC[C@@]2(C(=O)N2CCCO2)C1` in its proper category? Many thanks. middle

Sort into band: `CC(C)c1nnc(N2C[C@@H]3CC[C@H](C2)N(CC2CCC2)C3)s1` middle

Note: place this compound into its band. Item: `O=C(Nc1ccccc1Cl)N1CCN(CC2CC2)[C@@H]2CS(=O)(=O)C[C@@H]21` lower

Quick check: band for `CC(C)CNC(=O)N1C[C@H]2C[C@H](C(=O)NCc3ccccc3)[C@@H](C1)O2` middle

Consider `COCC1(CNC(=O)[C@@]23CNC[C@@H]2CN(C2CCCC2)C3)CC1` . To which Percent Effect class does it belong? middle
